- Tested on: HS 578T breast
- assay summary: NCI-60 one-dose screen, 48 h (100 = growth as untreated, 0 = no growth, -100 = all killed)
- run parameters: 10 µM unless noted
Compounds without any hit were thinned out: in the full panel of roughly 83,000, 20% have a hit.
Threshold-based label: growth under 90% gives t, growth not under 90% gives f.

Query: Find out if reported growth for `O=S(=O)(Nc1cc(Cl)ccc1Cl)c1ccc(-c2cnc(C3CC3)o2)cc1` is less than 90%
Reply: t

Query: Threshold test, growth < 90%: N#CC1=C(N)Oc2c(sc3c(Br)cccc23)C1c1ccc(Cl)cc1 (centres undefined)
Reply: t

Query: Quick check: does `CC(=O)Oc1ccc(N2C(=O)C(Cl)=C(Nc3cccc(C(F)(F)F)c3)C2=O)cc1` have growth under 90%?
Reply: f

Query: Given `O=C(CN1CCCCC1)Nc1nc(-c2cc3ccccc3oc2=O)cs1` , is recorded growth strictly lower than 90%?
Reply: f

Query: growth under 90%? Item: `O=C(Nc1nc(-c2ccc(Cl)cc2)nc2c1sc(=S)n2-c1ccccc1)C(F)(F)F`
Reply: t

Query: Just wondering, is growth of `COC(=O)CC[C@@H]1O[C@@H](c2cccc(C(F)(F)F)c2)[C@@H](O)[C@H]1O` below 90%?
Reply: f

Query: Regarding `CCCCC1=C(P(=O)(O)O)N[C@H](C(=O)O)CS1` , kindly confirm whether its growth is beneath 90%.
Reply: f

Query: Hello, is growth of the following compound strictly smaller than 90%? `C[C@@H](CO)[C@@H]1CCC=C2CC[C@]3(C)[C@H](CC[C@@H]4[C@@]5(C)CCCNC(C)(C)[C@@H]5CC[C@]43C)[C@H]21`
Reply: t

Query: Dear colleague, could you confirm whether growth of `O=C(CSc1nc2sc3c(c2c(=O)n1-c1ccccc1)CCCCC3)N/N=C/c1cccc([N+](=O)[O-])c1` falls below 90%? Thanks.
Reply: t
